- TARGET OR TEST SYSTEM: T1, biotin-labeled IL-2 with a human Fc-tag (Sanyou Biopharmaceutical, GenBank Accession No: P60568-1) (UniProt P60568 21-153, biotin-labeled (site not stated))
- T1 construct: Bought reagent; also called biotinylated IL-2-Fc; not shown: human Fc-tag
- T1 sequence (P60568 21-153 limits assumed, one chain of several): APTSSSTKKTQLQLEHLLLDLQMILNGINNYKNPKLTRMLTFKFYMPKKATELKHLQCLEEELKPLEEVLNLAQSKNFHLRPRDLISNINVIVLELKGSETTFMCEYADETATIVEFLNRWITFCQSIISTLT
- EXPERIMENT SUMMARY: Octet: biotin-IL-2-Fc sensor loaded with antibody (500 nM), reading at 230 s of IL-2Rβ-Fc (8000 nM) binding; lower = stronger blocking
PARAMETER MEASURED: Values for blocking IL-2Rβ at an Octet level

BINDER: D2-60 full-length fully human anti-IL-2 antibody (antibody, human IgG1, kappa, L234A L235A, V domains shown, Human IgG1 with LALA mutation, kappa light chain) VH: QVQLVQSGAEVKKPGASVKVSCKASGYTFTSYGISWVRQAPGQGLEWMGWISAYNGNTNYAQKLQGRVTMTTDTSTSTAYMELRSLRSDDTAVYYCAREYSSWYSGGMDVWGQGTTVTVSS VL: DIQMTQSPSSLSASVGDRVTITCRASQGISNYLAWYQQKPGKVPKLLIYAASTLQSGVPSRFSGSGSGTDFTLTISSLQPEDVATYYCQKYDSAPFTFGQGTRLEIKR
MEASURED RESULT: 0.086
--
BINDER: C2-53 full-length fully human anti-IL-2 antibody (antibody, human IgG1, kappa, L234A L235A, V domains shown, Human IgG1 with LALA mutation, kappa light chain) VH: EVQLVESGGGLVQPGRSLILSCAASGFTFDDYAMHWVRQAPGKGLEWVSGISWNSGSIGYADSVKGRFTISRDNAKNSLYLQMNSLRAEDTALYYCAKDQLRWGTYYYYGMDVWGQGTTVTVSS VL: DIQMTQSPSTLSASVGDRVTITCRASQSVSIWVAWYQQKPGKAPKLLIYKASSLERGVPTRFSGSGSGTEFTLTISSLQPEDFATYHCQQYDTGATFGQGTKVEMKR
MEASURED RESULT: 0.017
--
BINDER: D3-68 full-length fully human anti-IL-2 antibody (antibody, human IgG1, kappa, L234A L235A, V domains shown, Human IgG1 with LALA mutation, kappa light chain) VH: QVQLVQSGPEVKKPGASVKVSCKASGYTFTSYGISWVRRAPGQGLEWMGWISAYNGNTNYAQKLQGRVTMTTDTSTSTAYMELRSLRSDDTAVYYCARDLQSPTYYYGSGVIDYWGQGTLVTVSS VL: DIQLTQSPSTLSASVGDRVTISCRASRAVSPWLAWYQHRPGQAPKLLIYAASSLQSGVPSRFSGSGSGTDFTLTISSLQPEDFATYYCQQYRSYPFTFGPGTTVDIRR
MEASURED RESULT: 0.027
--
BINDER: A2-22 full-length fully human anti-IL-2 antibody (antibody, human IgG1, kappa, L234A L235A, V domains shown, Human IgG1 with L234A/L235A (LALA), kappa light chain; expressed in HEK293) VH: QVQLVQSGAEVKKPGASVKVSCKASGYTFTSYYMHWVRQAPGQGLEWMGIINPSGGSTSYAQKFQGRVTMTRDTSTSTVYMELSSLRSEDTAVYYCAREDWMEYEYYYGMDVWGQGTLVTVSS VL: EIVLTQSPGTLSLSPGERATLSCRASQSVSNNYLAWYQQKPGQAPRLLIYGASSRATGIPDRFSGSGSGTDFTLTISRLEPEDFAVYSCQQYGSSPLTFGQGTRLEIKR
MEASURED RESULT: 0.042
--
BINDER: A3-21 full-length fully human anti-IL-2 antibody (antibody, human IgG1, lambda, L234A L235A, V domains shown, Human IgG1 with LALA mutation) VH: EVQLLESGGGLAQPGGSLRLSCAGSGFTFSSYAMSWVRQAPGKGLEWVSGITGTGYRTYYADSVKGRFTVSRDNSRNTVYLQMNSLRAEDTAVYYCVRESGHYYGWFDSWGQGTLVTVSS VL: QSALTQPPSVSGAPGQRVTISCTGSSSNIGAGYNVHWYQQVPGTVPKLLIDGKGNRPSGVPDRFSGSKSGTSASLAITGLQAEDEADYYCQSYDYMLSGSVVFGRGTKLTVLG
MEASURED RESULT: 0.003
